- test protocol: Solubility of probes 1-4 in methanol and PBS
- Format: physicochemical
- details: phosphate-buffered saline (PBS), aqueous buffer; read-out: concentration at which soluble in PBS

molecule smiles	solubility
O=c1cc(C(F)(F)F)c2ccc(O)cc2n1CCCc1ccccc1	< 50 µM

The measurements presented in this section are drawn from patent US20120294808A1.
